What TGI was measured for each of the following?
# Tested on: EKVX NSCLC
# experimental.details: NCI tumour cell line growth inhibition, 48 h

compound	property	result
Cc1cc(N(CCC#N)CCC#N)ccc1/C=C1/N=C(c2ccccc2)N(N)C1=O	TGI	> 100 µM
COC(=O)c1nc(-c2ccccc2)oc1S(=O)(=O)n1nc(C)cc1N	TGI	43.9 µM
COc1cc(C2C3=C(COC3=O)Oc3cc4c(cc32)OCO4)cc(OC)c1OC(C)=O (stereo not given)	TGI	> 100 µM
COC(=O)C1=C(OC(=O)c2ccccc2)C(C(=O)OC)[C@]2(O)[C@@H](C(=O)OC)[C@H]1C[C@@H](c1ccccc1)[C@@H]2C(=O)OC (stereo not given in full)	TGI	> 100 µM
CCN(c1cccc(NC(=S)Nc2ccccc2N(CC)c2cc(-c3ccccc3)no2)c1)c1cc(-c2ccccc2)no1	TGI	> 100 µM

The following compounds each have a reported value; give each one's TGI.
1. Cc1ccc(/C=C2\CCCC(CN3CCCCC3)C2=O)cc1 (stereo not given)
2. Cc1csc2nc(-c3ccc(Cl)c([N+](=O)[O-])c3)c(/C=N/N=C(N)N)n12
3. CC(NC(C)(C)C)C(=O)c1cccc(Cl)c1 (stereo not given)
4. CN1COc2c(n(C)c(=O)[nH]c2=O)C1
5. O=C(CC(=O)Nc1ccccc1)N/N=C/c1cc(N=Nc2ccc(Br)cc2)ccc1O

Data returned:
1. 32.7 µM
2. 2.93 µM
3. > 100 µM
4. > 100 µM
5. > 10 µM

###

# System: NCI-H23 lung
# experimental.details: NCI tumour cell line growth inhibition, 48 h; in the data active = GI50 below about 0.43 µM; inactive = the rest
Respond using exactly one of the listed classes: Yes = active, No = inactive

Some solved entries appear below for comparison.
compound	study.system	answer.label
COc1ccc(/C=N/NC(=O)Cn2c(-c3ccc(S(C)(=O)=O)cc3)nc3cc(Cl)ccc32)cc1	NCI-H23 lung	No
CCN(CCO)CC(C)Nc1ccc([N+](=O)[O-])c2sc3ccccc3c(=O)c12 (centres undefined)	NCI-H23 lung	No
Cc1cccc(NC(=O)c2sc3nc4c(cc3c2N)CN(Cc2ccccc2)CC4)c1C	NCI-H23 lung	Yes
COc1ccc2c(c1)OC1=C(C(=O)OC1)C2c1cc(OC)c2c(c1)OCO2 (centres undefined)	NCI-H23 lung	Yes
COC(=O)c1nc(-c2ccccc2)oc1S(=O)(=O)n1nc(C)cc1N	NCI-H23 lung	No

Data request: Could you kindly confirm the outcome this assay logged for CC(C)(C)c1ccc(C(=O)Nc2sc3c(c2C(N)=O)CCC(=O)C3)cc1 ?
Data returned: Yes

Data request: Identify the outcome logged in this assay for the compound shown: Cn1cc(-c2nonc2-c2cn(C)c3ccccc23)c2ccccc21
Data returned: No

Data request: Short answer needed: outcome of this test for CN1CCC(n2cnc(-c3ccc(F)cc3)c2-c2ccnc(N)n2)CC1 ?
Data returned: No

Data request: Outcome logged for CN(CCCCCl)P(=O)(OCCS(=O)(=O)CC(NC(=O)CCC(N)C(=O)O)C(=O)NC(C(=O)O)c1ccccc1)OCC1OC(n2cc(F)c(=O)[nH]c2=O)CC1O (centres undefined) in this assay:
Data returned: Yes

###

# Tested on: SNB-75 CNS
# experimental.details: NCI tumour cell line growth inhibition, 48 h
property: GI50

compound	property	result
COc1ccc(C(=O)N2c3ccccc3Sc3ccccc32)c(OC)c1	GI50	209 nM
COc1ccc(/C=N/NC(=O)Cn2c(-c3ccc(S(C)(=O)=O)cc3)nc3cc(Cl)ccc32)cc1	GI50	1050 nM
CC1=CC(=O)C(O)C2(C)C1CC(O)C13COC4(C)C(OC(=O)C41)C(O)C23 (configuration not stated)	GI50	22000 nM
O=C(Nc1cccc(Nc2ncc(Br)c(NCCc3cnc[nH]3)n2)c1)N1CCCC1	GI50	1280 nM
COc1ccc(C2[C@@H](Cl)C(=O)N2c2cc(OC)c(OC)c(OC)c2)cc1Cl (some centres not stated)	GI50	73.4 nM
CN(CCCCCl)P(=O)(OCCS(=O)(=O)CC(NC(=O)CCC(N)C(=O)O)C(=O)NC(C(=O)O)c1ccccc1)OCC1OC(n2cc(F)c(=O)[nH]c2=O)CC1O (configuration not stated)	GI50	14500 nM

Data request: Recall the reported GI50 of Cc1nc2ccccc2c(/C=C/c2ccc(Br)cc2)c1C(=O)/C=C/c1ccccc1 on SNB-75 CNS and write it down.
Data returned: 1730 nM

###

# System: SF-539 CNS
# experimental.details: NCI tumour cell line growth inhibition, 48 h
property: log10(TGI) (log10 of the value in µM)
Could you please treat all values as log10 of TGI in µM?

Solved entries:
compound	study.system	numeric.value
FC(F)(F)c1ccc2nc(Sc3ccccn3)cnc2c1	SF-539 CNS	1.56
Cc1csc2nc(-c3ccc(Cl)c([N+](=O)[O-])c3)c(/C=N/N=C(N)N)n12	SF-539 CNS	0.47
COc1ccc(/C=N/NC(=O)Cn2c(-c3ccc(S(C)(=O)=O)cc3)nc3cc(Cl)ccc32)cc1	SF-539 CNS	0.53

Parameters: items (list). Returns: log10(TGI) for each item.
1. CC(C)=CCC/C(C)=C/CC/C(C)=C/CC/C=C(\C)CC/C=C(\C)CCC(=O)Nc1ccn(C2OC(CO)C(O)C2(F)F)c(=O)n1 (centres undefined)
2. COC(CN1C=C(Sc2ccccc2)CC1)OC

Data returned:
[-0.32, 1.83]

// for each compound below, give its log10(TGI)
1. COc1cc2c(c(OC)c1OC)-c1ccc(SC)c(=O)cc1[C@@H](NC1OC(CO)C(O)C(O)C1O)CC2 (some centres undefined)
2. CC(C)(C)c1ccc(C(=O)Nc2sc3c(c2C(N)=O)CCC(=O)C3)cc1
3. COc1cc2nc(NCCCCCNC(=O)c3ccco3)nc(N)c2cc1OC
4. Cc1n[nH]c(=O)n1/N=C/c1ccc([N+](=O)[O-])o1
5. Cc1ccc(C2=Nc3ccccc3SC(c3cccc([N+](=O)[O-])c3)C2)cc1 (centres undefined)
6. CCn1c2ccccc2c2cc(/C=C(/C#N)C(N)=O)ccc21
7. CCCc1ccc(NCc2cc(OC)c(OC)c(OC)c2)cc1

Data returned:
1. -1.15
2. 0.21
3. 1.56
4. 1.57
5. 1.28
6. 0.82
7. 1.80

Report log10(TGI) for each item below.
1. N#CN1CC[C@H](C(=O)Nc2ncc(-c3ccncc3)s2)C1
2. CN1CCN(Cc2ccc(NC(=O)c3[nH]ncc3Nc3ncnc4sc5c(c34)CCCC5)cc2)CC1
3. CC(C)(C)CN1CCn2c(nc3c(N)nccc32)S1
4. COC(=O)C1=C(OC(=O)c2ccccc2)C(C(=O)OC)[C@]2(O)[C@@H](C(=O)OC)[C@H]1C[C@@H](c1ccccc1)[C@@H]2C(=O)OC (some centres undefined)
5. COc1cccc(N2C(=O)C3c4[nH]c5ccc(C)cc5c4C4CCC(C(C)(C)C)CC4C3C2=O)c1 (centres undefined)
6. Cc1cccc(NC(=O)c2sc3nc4c(cc3c2N)CN(Cc2ccccc2)CC4)c1C
7. CCC[C@H](C)C[C@H](C)C[C@H](C)/C=C(\C)[C@@H](O)[C@@H](C)C(=O)CC

Data returned:
-0.79
0.23
1.90
1.16
0.87
1.45
1.57

# per-item lookup of log10(TGI); items listed below
1. C#CCOc1cccc(Nc2ncnc3c(NC(=O)CCl)cccc23)c1
2. CCCCCn1sc(=O)n(Cc2ccc(CNC(=O)OCc3ccc4cccc(O)c4n3)cc2)c1=O
3. CCN(CCO)CC(C)Nc1ccc([N+](=O)[O-])c2sc3ccccc3c(=O)c12 (centres undefined)

Data returned:
1. 1.50
2. 0.45
3. 1.28

###

# Tested on: HOP-18 NSCLC
# experimental.details: NCI tumour cell line growth inhibition, 48 h
Give measured TGI for each item. Keep answers brief.
Give bare numbers, in µM.

Answered examples (4):
>>> print(df.to_string())
                                   compound  value_units  numeric_value
0  c1ccc(P(=Nc2ccccc2N=P(c2ccccc2)(c2ccccc2)c2ccccc2)(c2ccccc2)c2ccccc2)cc1           µM          0.844
1  Cc1cc(NCCCCCCCNc2cc(C)nc3cc([N+](=O)[O-])ccc23)c2ccc([N+](=O)[O-])cc2n1           µM           31.1
2  C/C1=C\[C@@H](O)C(=O)/C=C/C=C\c2csc(n2)[C@@H](C)NC(=O)C[C@@]2(CC1)S(=O)SC(=O)[C@]2(C)O (some centres not stated)           µM          0.178
3  O=C(O)/C(Cl)=C(\Cl)C(=O)Nc1ccc(Cl)c(Cl)c1Cl           µM             31

Data request: Write TGI of N#Cc1ccc(N=Cc2c([O-])ccc3ccccc23)cc1.[C-]#[O+].[C-]#[O+].[Ir] ; system used: HOP-18 NSCLC
Data returned: 8.51

// provenance: PubChem BioAssay (NCI)
